experiment: yeast display, Sf9 membrane polyspecificity reagent, FACS + sequencing; frameworks hold sequencing errors
reported.metric: polyreactivity (PSR sort gate)

[
  {
    "query.sequence": "QVQLVESGGGLVQAGGSLRLSCAASGRIFFYYAMGWYRQAPGKERELVATITASGDSTYYADSVKGRFTISRDNAMDTVYLQMNSLKPEDTAVYYCAADDGDYYEVDYWGQGTQVTVSS",
    "measured.value": "low polyreactivity"
  },
  {
    "query.sequence": "QVQLVESGGGLVQAGGSLRLSCAASGYIFYYNAMGWYRQAPGKERELVADITWSGDSTYYADSVKGRFTISRYNAKNTVYLQMNSLKPEDTAVYYCAAEYLEYWDYDIMDYWGQGTQVTVSS",
    "measured.value": "low polyreactivity"
  }
]

###

experiment: yeast display, Sf9 membrane polyspecificity reagent, FACS + sequencing; frameworks hold sequencing errors
reported.metric: polyreactivity (PSR sort gate)

Consider the reported polyreactivity (PSR sort gate) for these sequences:
[
  {
    "query.sequence": "QVQLVESGGGLVQAGGSLRLSCAASGFIFSTYAMGWYRQAPGKERELVASIDWSGDSTYYADSVKGRFTISRDNAKNTVYLQMTSLKPEDTAVYEFAADDASYPYIFDSYDYWGQGTQVTVSS",
    "polyreactivity (PSR sort gate)": "low polyreactivity"
  },
  {
    "query.sequence": "QVQLVESGGGLVQAGGSLRLSCAASGRIFKYYAMGWFRQAPGKERELVAAISSGSSTNYADSVKGRFTISRDTAKNTVYLQMNSLKPEDTAVYYCAAKYYRSKFDFWGQGTQVTVSS",
    "polyreactivity (PSR sort gate)": "high polyreactivity"
  },
  {
    "query.sequence": "QVQLVESGGGLVQAGGSLRLSCAASGFTFKFNAMGWYRQAPGKEREFVAAISYSGGSTYYADSVKGRFTISRDNAKNTVYLQMNSVKPEDTAVYYCAARAYWYGASYYYWGQGTQVTVSS",
    "polyreactivity (PSR sort gate)": "high polyreactivity"
  },
  {
    "query.sequence": "QVQLVESGGGLVQAGGSLRLSCAPSGRIFRKYAMGWYRQAPGKERELVAAINSRGGRTYYADSVKGRFTISRDNAKKTVYLQMNSLKPEDTAVYYCAASVGWGMDYWGQGTQVTVSS",
    "polyreactivity (PSR sort gate)": "high polyreactivity"
  }
]

Lab note: next sequence to report on.
Q: Supply reported polyreactivity (PSR sort gate) belonging to this sequence: QVQLVESGGGLVHAGGSLRLSCAASGFTFYYNDMGWYRQAPGKERELVAAIRWSGGNTYYADSVKGRFKISRDNAKNTVYLQMNSLKPEDTAVYYCSAGTQWYSQVYIYYYWGQGTQVTVSS
Result: low polyreactivity

###

test: yeast display, Sf9 membrane polyspecificity reagent, FACS + sequencing; frameworks hold sequencing errors
reported.metric: polyreactivity (PSR sort gate)

[
  {
    "query.sequence": "QVQLVESGGGLVQAGGSLRLSCAASGSIFVPYAMGWYRQAPGKERELVAAINHGGGRTYADSVKGRFTISRDNAKNTVYLQMNSLKPEDTAVYYCAADGAHKIGYYRYYYWGQGTQVTVSS",
    "reported.metric": "polyreactivity (PSR sort gate)",
    "measured.value": "low polyreactivity"
  },
  {
    "query.sequence": "QVQLVESGGGLVQAGGSLRLSCAASGRTFAAYAMGWYRQAPGKEREFVADITYSGGSTTYADSVKGRFTISRDNAKNTVYLLMNSLNPEDTAVYYCNKLAYTPGWRGFVWYDYWGQGTQVSVSS",
    "reported.metric": "polyreactivity (PSR sort gate)",
    "measured.value": "low polyreactivity"
  }
]

###

test: yeast display, Sf9 membrane polyspecificity reagent, FACS + sequencing; frameworks hold sequencing errors
reported.metric: polyreactivity (PSR sort gate)

Consider the reported polyreactivity (PSR sort gate) for these sequences:
[
  {
    "query.sequence": "QVQLVESGGGLVQAGGSLRLSCAASGRIFADNAMGWYRQAPGKERELVADITYSGGSTYYADSVKGRFTISRDSAKNTVYLQMNSLKPEDTAVYYCAKQGVDYWGQGTQVTVSS",
    "polyreactivity (PSR sort gate)": "low polyreactivity"
  },
  {
    "query.sequence": "QVQLVETGGGLVQAGGSLRLSCAASGSIFDWYAMGWYRQAPGKEGELVAAISSGDSTYYADSVKGRFTISRDNAKNTVYLKMNSLKPEDTAVYYCAAVTKLSGIRYNYWGQGTQVTVSS",
    "polyreactivity (PSR sort gate)": "low polyreactivity"
  },
  {
    "query.sequence": "QVQLVESGGGLVQAGGSLRLSCAASGRTFDRNARGWYRQAPGKEREVVARITIDGSTNYADSVKGRFTISRDNAKNTVYLQMNSLKPEETAVYYCATDQLSLSWYFRPYDYCYWGQVTQVTVSS",
    "polyreactivity (PSR sort gate)": "high polyreactivity"
  },
  {
    "query.sequence": "QVQLVESAGGLVQAGGSLRLSGAASGSTFHNYAVGWSRQAPGKERELVGGISVRGGGTYYADSVKGRFTISRDNAKNTVYLQMNSLKPEDTAVYYCAQRSRYYYRYDYWGQGTQVTVSS",
    "polyreactivity (PSR sort gate)": "high polyreactivity"
  },
  {
    "query.sequence": "QVQLVESGGGLVQAGGSHRLSCDASGYIFRRYAMGWYRQAPGKERELVAAISWRGGSTYYADSVKGRFTISRDNAKNTVYLQMNSLKPEDSAVYYCAKVVPGAGHLDEYWGQGTQVTVSS",
    "polyreactivity (PSR sort gate)": "high polyreactivity"
  },
  {
    "query.sequence": "QVQLVESGGGLVQAGGSLRLSCAASGSTFYYYGMGWYRQAPGKERELVASISWGGGSTYYADSVKGRFTISRDNAKNTVYLQMNILKPEDTAVYYCATRGSYLGGLYDYWGQGTQVTVSS",
    "polyreactivity (PSR sort gate)": "high polyreactivity"
  },
  {
    "query.sequence": "QVQLVESGAGLFKAGGSLRLSCAASGRIFATNAMGWYRQAPGKERELVAAISSSGGSTYYADSVKGRFTISRDNAKNTVYLQMNSLKPEDTAVYDCAAAHSYYVHYYYWGQGTQGTVSS",
    "polyreactivity (PSR sort gate)": "high polyreactivity"
  },
  {
    "query.sequence": "QVQLVESGGGLVQAGGSLRLSCAASGSTFGINAMGWYRQAPGKERDLVAAISSRGGSTYYADSVKGRFTISRDNAKNTVYLLMNSLKPEDTAVYYCAAEFAVSFYWSWLGQDYYYWGQGTQVTVSS",
    "polyreactivity (PSR sort gate)": "high polyreactivity"
  },
  {
    "query.sequence": "QDQHVESGGGLVQARGTLRLSCAASGFTFYHYAMGWSRQAPGTERELVAGISHRGASTYYADSVKGRFTISRDNAKNTVYLQMNSLKPEDTAVYYCNAYRPYRNHALIGDGYWGQGTQVTVSS",
    "polyreactivity (PSR sort gate)": "high polyreactivity"
  },
  {
    "query.sequence": "QVQLVESGGGLVQAGGSLRLSCAASGFIFARYAMGWYRQAPGKERELVAAISSSGSSSYYADSVKGRFTISRDNAKNTVYLQMNSLKPEDTAVYYCAAKDSKYRNSPLYNYWGQGTQVTVSS",
    "polyreactivity (PSR sort gate)": "high polyreactivity"
  }
]

Lab note: next sequence to report on.
Q: Supply reported polyreactivity (PSR sort gate) belonging to this sequence: QVQLVESGGGLVQAGGSLRLSCAASGYTFTIYAMGWYRQAPGKERELVAAITGRGGRTNYADSVKGRFTISRDNAKNTVYLQMNSLKPEDTAVYYCAKGGRSSSPRYRFDYWGQGTQVTVSS
Result: high polyreactivity

###

test: yeast display, Sf9 membrane polyspecificity reagent, FACS + sequencing; frameworks hold sequencing errors
reported.metric: polyreactivity (PSR sort gate)

[
  {
    "query.sequence": "QVQLVESGGGLVQAGGSLRLSCAASGRIFSYTAMGWYRQAPGKERELVAAITRVDNTNYADSVKGRFTISRDNAKNTVYLQMNSLKPEDTAVYYCNARQHQVRWWLREFDYWGQGTQVTVSS",
    "reported.metric": "polyreactivity (PSR sort gate)",
    "measured.value": "low polyreactivity"
  },
  {
    "query.sequence": "QVQLVESGGGLVQAGGSLRLSCAASGSTFARYAMGWYRQAPGKERELVAAITWGGGGTYADSVKGRFTISRDNAKNTVSLQMNSLKPEDTAVYYCNAYGPLILFIGFRLDYWGQGTQVTVSS",
    "reported.metric": "polyreactivity (PSR sort gate)",
    "measured.value": "low polyreactivity"
  },
  {
    "query.sequence": "QVQLVESGGGLVQAGGSLRLSCAASGITFAKYAMGWYRQAPGKESELVAAISSSGGRTYYADSVKGRFTISRDNAKNTVYLQMNSLKPEDTAVYYCAADFSGPFDYWGLGTQVTVSS",
    "reported.metric": "polyreactivity (PSR sort gate)",
    "measured.value": "high polyreactivity"
  },
  {
    "query.sequence": "QVQLVESGGGLVQAGGSLRLSCAASGLIFRPYAIGWYRQAPGKERELVAGITSGGNTDYADSVKGRFTISRDNAKNTVYLQMNSLKPEDTAVYYCADYFIYGYWGQGTQVTVSS",
    "reported.metric": "polyreactivity (PSR sort gate)",
    "measured.value": "low polyreactivity"
  },
  {
    "query.sequence": "QVQLVESGGGLVQAGGSLRLSCAASGSTFTLYVMGWYRQAPGKERELVAAITSSGDSTDYADSVKGRFTISRDNAKNTVYLQMNSLKPEDTAVYYCNVQPVYADHFTEFDYWGQGTQVTVSS",
    "reported.metric": "polyreactivity (PSR sort gate)",
    "measured.value": "low polyreactivity"
  },
  {
    "query.sequence": "QVHLVDSGGGLVQAGGSLRLSCAASGRIFSPYAMGWYRQAPGKERELVASINYSGGSTYADSVKGRFTISRDNAKNTVYLQMNSLKPEDTAVYYCAAEDIGRYYRLDYWGQGTQVSVSS",
    "reported.metric": "polyreactivity (PSR sort gate)",
    "measured.value": "low polyreactivity"
  },
  {
    "query.sequence": "QDQLVESGGGLVQAGGSLRLSCAASGLTFQSYAIGWYRQAPGKERELVATISNGSSTYYADSVKGRFTISRDNAKNTVYLQMNSQKPEDTAVYYCAADGYLHAGHWRTYGYYYWGHGTQVTVSS",
    "reported.metric": "polyreactivity (PSR sort gate)",
    "measured.value": "low polyreactivity"
  },
  {
    "query.sequence": "QVQLVESGGGLVQAGGSLRLSCAASGIILSPYTMGWYIQAPGKERELVAGISRSGGTTYYADSVKGRFTISRDNAKNTVYLQMNSLKPEDTAVYYCAAGLIYGYSGYDSWGQGTQVTVSS",
    "reported.metric": "polyreactivity (PSR sort gate)",
    "measured.value": "low polyreactivity"
  },
  {
    "query.sequence": "QGQLVESGGGLVQAGGSLRLSCAASGIIFTANVMGWYRQAPGKERELVAAITRGGNTYYADSVKGRFTISRDNAKNTVYLQMNSLKPEDTAVYYCAAADYTTPVPYGRKGFDYWGQGTQVTVSS",
    "reported.metric": "polyreactivity (PSR sort gate)",
    "measured.value": "low polyreactivity"
  },
  {
    "query.sequence": "QVQLVESGGGLVQAGGSLRLSCAASGSIFITYAMGWYIQAPGKERELVTAIRDSGDRTYYADSVKGRFTISRDNAKNTVYLQMNSLKPEDTSVYYCAAVLYSRLYWDRLDYWGQGTQVTVSS",
    "reported.metric": "polyreactivity (PSR sort gate)",
    "measured.value": "low polyreactivity"
  }
]

Lab note: next sequence to report on.
Q: Supply reported polyreactivity (PSR sort gate) belonging to this sequence: QVQLVESGGGLVQAGGSLRVSCAASGFTFNYYAMGWYRQAAGKERELVAAISKDGTRTYYADSVKGRFTISRDNAKNTVYLQMNRQKPEDTAVYYCAAKASPAGSNYWGQGTQVTVSS
Result: high polyreactivity

The values you see were collected from the nanobody polyreactivity screen of Harvey et al. (2022).
